This collection of values is drawn from paper PMC10786891.

Target: T1, EsCas13d, nuclease-dead (Eubacterium siraeum, UniProt B0MS50, R295A;H300A;R849A;H854A)
T1 sequence: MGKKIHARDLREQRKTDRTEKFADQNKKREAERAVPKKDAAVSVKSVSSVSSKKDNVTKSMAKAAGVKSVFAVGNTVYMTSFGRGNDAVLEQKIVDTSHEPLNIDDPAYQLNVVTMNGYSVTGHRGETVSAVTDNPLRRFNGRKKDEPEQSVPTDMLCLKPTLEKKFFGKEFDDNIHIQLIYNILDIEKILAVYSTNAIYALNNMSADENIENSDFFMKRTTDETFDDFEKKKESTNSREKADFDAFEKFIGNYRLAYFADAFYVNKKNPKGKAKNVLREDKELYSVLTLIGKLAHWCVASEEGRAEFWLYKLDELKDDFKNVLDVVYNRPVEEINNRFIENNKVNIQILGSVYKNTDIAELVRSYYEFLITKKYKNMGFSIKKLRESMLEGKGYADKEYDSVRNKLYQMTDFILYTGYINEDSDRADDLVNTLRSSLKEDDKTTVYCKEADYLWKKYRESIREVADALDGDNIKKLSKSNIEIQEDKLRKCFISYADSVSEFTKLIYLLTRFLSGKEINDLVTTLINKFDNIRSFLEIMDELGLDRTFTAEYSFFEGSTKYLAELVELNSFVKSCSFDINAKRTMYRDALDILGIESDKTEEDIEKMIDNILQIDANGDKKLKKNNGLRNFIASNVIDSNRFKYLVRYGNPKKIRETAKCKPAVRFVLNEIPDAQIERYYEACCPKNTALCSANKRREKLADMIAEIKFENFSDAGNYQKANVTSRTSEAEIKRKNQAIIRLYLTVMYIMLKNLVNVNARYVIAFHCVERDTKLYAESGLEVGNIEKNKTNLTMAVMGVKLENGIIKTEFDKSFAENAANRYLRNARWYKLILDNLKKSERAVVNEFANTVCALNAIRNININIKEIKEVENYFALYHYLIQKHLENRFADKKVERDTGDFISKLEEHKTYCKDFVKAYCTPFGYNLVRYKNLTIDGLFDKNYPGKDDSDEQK
Experiment: crRNA (strand 1, pre-loaded); Mg2+; 40 mM Tris-HCl pH 7.5, 150 mM NaCl, 6 mM MgCl2, 1 mM DTT, 0.1% Tween-20, 0.2 mg/ml BSA; 25 C; 10 min per concentration, then washed
Conditions: tags: His6-TwinStrep-SUMO cleaved; N-terminal SNAP kept (SNAP-Surface 488); label: 3' end held by stalled T7 RNA polymerase
Exercise: for every item that follows, state its recorded pKd.
// pKd: -log10(molar conc.)

Which pKd reading was recorded for the binder target 1 C22A (mixed) RNA 1: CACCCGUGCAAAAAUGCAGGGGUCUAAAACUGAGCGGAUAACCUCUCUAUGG RNA 2: GGGAAUGGAUCCACAUCUACGAAUUCGUAACAUAGAGAGGUUAUCCGCUCACCGAGAUCGGAAGAGCACACGU ?
7.87

Which pKd reading was recorded for the binder target 2 MT 5'PFS UAG 3'PFS CAU (mixed) RNA 1: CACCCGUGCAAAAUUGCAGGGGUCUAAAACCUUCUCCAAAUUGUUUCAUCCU RNA 2: GGGAAUGGAUCCACAUCUACGAAUUCUAGAGGAUGAAACAAUUUGGAGAAGCAUAGAUCGGAAGAGCACACGU ?
8.43

Which pKd reading was recorded for the binder target 2 MT 5'PFS UGC 3'PFS CGC (mixed) RNA 1: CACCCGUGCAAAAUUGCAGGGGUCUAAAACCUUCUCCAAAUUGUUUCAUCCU RNA 2: GGGAAUGGAUCCACAUCUACGAAUUCUGCAGGAUGAAACAAUUUGGAGAAGCGCAGAUCGGAAGAGCACACGU ?
7.18

Which pKd reading was recorded for the binder target 3 insC 3' of 22,insA 3' of 3 (mixed) RNA 1: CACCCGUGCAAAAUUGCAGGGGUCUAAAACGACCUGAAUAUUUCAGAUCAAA RNA 2: GGGAAUGGAUCCACAUCUACGAAUUCGUUUCUUGAUCUGAAAUAUUCAGGAUCUGCAGAUCGGAAGAGCACACGU ?
7.18
